target.of.assay: wild-type SmDPP7
assay.details: Isothermal titration calorimetry of dipeptide binding
experimental.context: ITC, 50 mM sodium phosphate pH 7.0, 2.5% dimethyl sulfoxide, 25 °C
Residues, ends and D or L forms follow the SMILES beside them.

| compound | target.of.assay | Kd |
| --- | --- | --- |
| CC(C)[C@H](N)C(=O)N[C@@H](Cc1ccc(O)cc1)C(=O)O [Val-Tyr] (H-Val-Tyr-OH) | wild-type SmDPP7 | > 40 µM |

---

Residues, ends and D or L forms follow the SMILES beside them.
The following molecules each carry a recorded Ki for PgDPP11 (Porphyromonas gingivalis).

| molecule | Ki |
| --- | --- |
| NC(=O)CC[C@H](N)C(=O)N[C@@H](CC(=O)O)C(=O)O [Gln-Asp] (H-Gln-Asp-OH) | > 5.11 µM |
| N[C@@H](Cc1c[nH]c2ccccc12)C(=O)N[C@@H](CC(=O)O)C(=O)O [Trp-Asp] (H-Trp-Asp-OH) | 1.36 µM |
| N[C@@H](Cc1ccccc1)C(=O)N[C@@H](CC(=O)O)C(=O)O [Phe-Asp] (H-Phe-Asp-OH) | 5.11 µM |
| CC(C)[C@H](N)C(=O)N[C@@H](CC(=O)O)C(=O)O [Val-Asp] | > 5.11 µM |
| N=C(N)NCCC[C@H](N)C(=O)N[C@@H](CC(=O)O)C(=O)O [Arg-Asp] (H-Arg-Asp-OH) | > 5.11 µM |
| N[C@@H](CC(=O)O)C(=O)N[C@@H](CC(=O)O)C(=O)O [Asp-Asp] (H-Asp-Asp-OH) | > 5.11 µM |
| CC(C)C[C@H](N)C(=O)N[C@@H](CC(=O)O)C(=O)O [Leu-Asp] (H-Leu-Asp-OH) | 3.35 µM |
| NCC(=O)N[C@@H](CC(=O)O)C(=O)O [Gly-Asp] (H-Gly-Asp-OH) | > 5.11 µM |
| NC(=O)C[C@H](N)C(=O)N[C@@H](CC(=O)O)C(=O)O [Asn-Asp] (H-Asn-Asp-OH) | 4.06 µM |
| CSCC[C@H](N)C(=O)N[C@@H](CC(=O)O)C(=O)O [Met-Asp] (H-Met-Asp-OH) | > 5.11 µM |
| N[C@@H](CCC(=O)O)C(=O)N[C@@H](CC(=O)O)C(=O)O [Glu-Asp] (H-Glu-Asp-OH) | > 5.11 µM |
| O=C(O)C[C@H](NC(=O)[C@@H]1CCCN1)C(=O)O [Pro-Asp] (H-Pro-Asp-OH) | > 5.11 µM |
| CC[C@H](C)[C@H](N)C(=O)N[C@@H](CC(=O)O)C(=O)O [Ile-Asp] (H-Ile-Asp-OH) | > 5.11 µM |
| N[C@@H](CO)C(=O)N[C@@H](CC(=O)O)C(=O)O [Ser-Asp] (H-Ser-Asp-OH) | > 5.11 µM |
| C[C@H](N)C(=O)N[C@@H](CC(=O)O)C(=O)O [Ala-Asp] (H-Ala-Asp-OH) | > 5.11 µM |
| NCCCC[C@H](N)C(=O)N[C@@H](CC(=O)O)C(=O)O [Lys-Asp] (H-Lys-Asp-OH) | > 5.11 µM |
| N[C@@H](Cc1c[nH]cn1)C(=O)N[C@@H](CC(=O)O)C(=O)O [His-Asp] (H-His-Asp-OH) | > 5.11 µM |
| C[C@@H](O)[C@H](N)C(=O)N[C@@H](CC(=O)O)C(=O)O [Thr-Asp] (H-Thr-Asp-OH) | > 5.11 µM |
| N[C@@H](Cc1ccc(O)cc1)C(=O)N[C@@H](CC(=O)O)C(=O)O [Tyr-Asp] (H-Tyr-Asp-OH) | > 5.11 µM |

The measurements presented in this section are drawn from paper PMC8041751.
